assay: Toxicity in L4-stage of Caenorhabditis elegans expressing dpy-18 assessed as embyronic lethality after 24 hrs by light microscopic analysis; format: organism-based; settings: in vivo, read-out: LD50
Measurement type: LC50 at 24 h (µM)
Numbers only; they are read as µM.

Return value of LC50 at 24 h for input O=C([O-])CCC(=O)C1CO1.[Na+] (racemic) , no commentary.
110
